# assay: Metabolic stability in rat liver microsomes assessed as half life
# Format: ADME, Microsome
With a cut-off of 6 min, any half-life strictly below it is called criterion met; any half-life meeting it or above is called criterion not met.

- compound: "CN(CC(=O)NC(c1ccccc1Cl)c1cc(Cl)c2cccnc2c1O)Cc1ccccc1 (centres undefined)"
  class.name: "criterion met"
- compound: "O=C(COc1ccccc1)NC(c1ccccc1[N+](=O)[O-])c1cc(Cl)c2cccnc2c1O (centres undefined)"
  class.name: "criterion met"
- compound: "Cc1ccc(C(NC(=O)CN(C)Cc2ccccc2)c2cc(Cl)c3cccnc3c2O)cc1 (centres undefined)"
  class.name: "criterion not met"
- compound: "COc1ccc(C(NC(=O)COc2ccc(Cl)c(C)c2)c2cc(Cl)c3cccnc3c2O)cc1 (centres undefined)"
  class.name: "criterion not met"
- compound: "O=C(COCc1ccccc1)NC(c1cccc(F)c1)c1cc(Cl)c2cccnc2c1O (centres undefined)"
  class.name: "criterion not met"
- compound: "CC(=O)c1ccc(NCC(=O)NC(c2ccc(C)cc2)c2cc(Cl)c3cccnc3c2O)cc1 (centres undefined)"
  class.name: "criterion met"
- compound: "CC(=O)Nc1ccc(NCC(=O)NC(c2cccc([N+](=O)[O-])c2)c2cc(Cl)c3cccnc3c2O)cc1 (centres undefined)"
  class.name: "criterion not met"
